The measurements presented in this section are drawn from patent US20260070922A1.

# Kb listing for each entry below
target desc: Orexin type 1 (OX1R) receptor (Homo sapiens)
Construct: expressed in transfected cells; host or cells: CHO cells (G418 selection)
Sequence (O43613 whole entry): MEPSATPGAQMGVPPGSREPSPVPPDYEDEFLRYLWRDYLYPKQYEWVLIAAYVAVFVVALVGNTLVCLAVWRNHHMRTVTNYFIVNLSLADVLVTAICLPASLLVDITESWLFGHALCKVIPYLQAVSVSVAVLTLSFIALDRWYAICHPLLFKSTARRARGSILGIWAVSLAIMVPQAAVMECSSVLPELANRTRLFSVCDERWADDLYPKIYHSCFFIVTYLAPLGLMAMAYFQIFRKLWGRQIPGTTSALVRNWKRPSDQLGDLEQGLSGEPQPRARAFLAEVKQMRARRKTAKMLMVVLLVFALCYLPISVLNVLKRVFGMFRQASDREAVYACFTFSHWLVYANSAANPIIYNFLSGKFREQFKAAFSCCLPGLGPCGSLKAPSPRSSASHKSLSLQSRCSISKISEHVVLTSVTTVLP
procedure summary: In vitro orexin antagonism assay: intracellular calcium measurement (FLIPR), orexin-A 3 nM as agonist
Type: cell-based
condition context: second value of IC50/Kb cell
value kind: Kb (nM)

[[record]]
molecule = "O=C(c1c(-c2ccccc2)nc2cc(C(F)(F)F)ccn12)N1CCC[C@H]1Cn1ccc(-c2ccc(F)cc2)n1 [Example 53]"
value_kind = "Kb"
units_of_measure = "nM"
quantitative_readout = 4

[[record]]
molecule = "O=C(c1c(-c2ccc(F)cc2)nn2ccccc12)N1CCC[C@H]1Cn1ccc(-c2ccccc2)n1 [Example 44]"
value_kind = "Kb"
units_of_measure = "nM"
quantitative_readout = 1

[[record]]
molecule = "O=C(c1nn2ccccc2c1-c1ccccn1)N1CCC[C@H]1Cn1cc(-c2ccccn2)cn1 [Example 173]"
value_kind = "Kb"
units_of_measure = "nM"
quantitative_readout = 2

[[record]]
molecule = "O=C(c1nc2ccccn2c1-c1ccccn1)N1CCC[C@H]1COc1ccc(C(F)(F)F)cn1 [Example 179]"
value_kind = "Kb"
units_of_measure = "nM"
quantitative_readout = 2

[[record]]
molecule = "O=C(c1nn2ccccc2c1-c1ccccn1)N1CCC[C@H]1Cc1nc(-c2ccc(F)cn2)no1 [Example 176]"
value_kind = "Kb"
units_of_measure = "nM"
quantitative_readout = 2

[[record]]
molecule = "O=C(c1c(-c2ccccc2F)nn2ccccc12)N1[C@H](Cn2ccc(-c3ccc(F)cc3)n2)C[C@@H]2C[C@@H]21 [Example 95]"
value_kind = "Kb"
units_of_measure = "nM"
quantitative_readout = 20

[[record]]
molecule = "O=C(c1nc2n(c1-c1ccccn1)CCOC2)N1CCC[C@H]1Cn1ccc(-c2ccc(F)cn2)n1 [Example 216]"
value_kind = "Kb"
units_of_measure = "nM"
quantitative_readout = 34

